# System: Staphylococcus epidermidis JCM 2414
# METHOD: microbe, parasite or virus in culture
# Assay type: cell-based
# CONDITION NOTES: Table 5; unit not given
No end group written: not given here.
MEASUREMENT TYPE: MIC Staphylococcus epidermidis

[[record]]
substance = "RLGERLKRKIQKLIRL-NH2 [SRP-31]"
measurement_type = "MIC Staphylococcus epidermidis"
test_result = "8-16"

[[record]]
substance = "GRLKRLGERLKRKIQKLIRL-NH2 [SRP-27]"
measurement_type = "MIC Staphylococcus epidermidis"
test_result = "8-16"

[[record]]
substance = "GRLKRIGERLKRKIQKWIRW-NH2 [SRP-24]"
measurement_type = "MIC Staphylococcus epidermidis"
test_result = "8-32"

[[record]]
substance = "GRLKRLGERLKRKIQKWIRW-NH2 [SRP-22]"
measurement_type = "MIC Staphylococcus epidermidis"
test_result = 8

[[record]]
substance = "MGERLKRKIQKWIRW-NH2 [SRP-25]"
measurement_type = "MIC Staphylococcus epidermidis"
test_result = "8-32"

[[record]]
substance = "Ac-RLKRLGERLKRKIQKLIRL-NH2 [SRP-33]"
measurement_type = "MIC Staphylococcus epidermidis"
test_result = "8-16"

[[record]]
substance = "RLKRLGERLKRKIQKL-NH2 [SRP-36]"
measurement_type = "MIC Staphylococcus epidermidis"
test_result = 8

[[record]]
substance = "LKRLGERLKRKIQKLIRL-NH2 [SRP-29]"
measurement_type = "MIC Staphylococcus epidermidis"
test_result = 8

[[record]]
substance = "GRLKRLGKRLKRKIQKLARL-NH2 [SRP-32]"
measurement_type = "MIC Staphylococcus epidermidis"
test_result = "4-8"

[[record]]
substance = "RLKRLGERLKRKIQKLIR-NH2 [SRP-34]"
measurement_type = "MIC Staphylococcus epidermidis"
test_result = "8-16"

[[record]]
substance = "GERLKRKIQKWIRW-NH2 [SRP-26]"
measurement_type = "MIC Staphylococcus epidermidis"
test_result = "16-32"

[[record]]
substance = "RLKRLGERLKRKIQKLIRL-NH2 [SRP-28]"
measurement_type = "MIC Staphylococcus epidermidis"
test_result = "8-16"

[[record]]
substance = "GRLKRVGERLKRKIQKWIRW-NH2 [SRP-23]"
measurement_type = "MIC Staphylococcus epidermidis"
test_result = "8-16"

[[record]]
substance = "RLKRLGERLKRKIQKLI-NH2 [SRP-35]"
measurement_type = "MIC Staphylococcus epidermidis"
test_result = 8

[[record]]
substance = "KRLGERLKRKIQKLIRL-NH2 [SRP-30]"
measurement_type = "MIC Staphylococcus epidermidis"
test_result = "8-16"


* * *

# Tested on: Pseudomonas aeruginosa 12 (clinical strain)
# METHOD: microbe, parasite or virus in culture
# CONDITION NOTES: Table 4; clinical strain; first/second value where not identical
No end group written: not given here.
Entries and their MIC Pseudomonas aeruginosa 12 values follow.
MEASUREMENT TYPE: MIC Pseudomonas aeruginosa 12

[[record]]
substance = "KLIFLHRLKRELRKRLKRKLR-NH2 [SRP-13]"
test_result = "8/16"

[[record]]
substance = "KNLRRIIRKIIHIIKKYG-NH2 [Ovispirin-1, reference compound]"
test_result = "16/32"

[[record]]
substance = "RLKRMRKRLKRKLRLW-NH2 [SRP-17]"
test_result = "16/64"

[[record]]
substance = "MLKLIFLHRLKRMRKRLKRKLR-NH2 [SRP-9]"
test_result = "16/32"

[[record]]
substance = "GRLKRMGERLKRKIQKWIRW-NH2 [SRP-15]"
test_result = "8/16"

[[record]]
substance = "RLKRMRKRLKRKLRLWHRKRYK-NH2 [SRP-8]"
test_result = "16/32"

[[record]]
substance = "GRLKRMGKRLKRKIQKWARW-NH2 [SRP-14]"
test_result = "8/16"

[[record]]
substance = "MLKLIFLHRLKRMRKRLKRK-NH2 [SRP-10]"
test_result = "16/32"

[[record]]
substance = "KLIFLRELRRLRKRLKRKLR-NH2 [SRP-16]"
test_result = "8/16"


* * *

# Test system: Escherichia coli ATCC 25922
# METHOD: ATP Assay (viability at 3 hours), Table 6
# Format: cell-based
# CONDITION NOTES: 3 h, 5 μg/mL
No end group written: not given here.
MEASUREMENT TYPE: Escherichia coli ATP (viability, relative value to negative control)

[[record]]
substance = "GRLKRLGERLKRKIQKLIRL-NH2 [SRP-27]"
test_result = 5.6

[[record]]
substance = "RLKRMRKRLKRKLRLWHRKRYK-NH2 [SRP-8]"
test_result = 1.7

[[record]]
substance = "MLKLIFLHRLKRMRKRLKRKLR-NH2 [SRP-9]"
test_result = 2.6

[[record]]
substance = "MGERLKRKIQKWIRW-NH2 [SRP-25]"
test_result = 23.5


* * *

# Tested on: Trichophyton rubrum NBRC9185
# CONDITION NOTES: Table 4; two tests, first/second value where not identical
No end group written: not given here.
MEASUREMENT TYPE: MIC Trichophyton rubrum

[[record]]
substance = "IFLHRLKRMRKRLKRKLRLW-OH [SRP-7]"
system_name = "Trichophyton rubrum NBRC9185"
test_result = "64/32"

[[record]]
substance = "RLKRMRKRLKRKLRLW-NH2 [SRP-17]"
system_name = "Trichophyton rubrum NBRC9185"
test_result = "64/32"

[[record]]
substance = "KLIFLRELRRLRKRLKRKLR-NH2 [SRP-16]"
system_name = "Trichophyton rubrum NBRC9185"
test_result = "64/32"

[[record]]
substance = "KLIFLHRLKRELRKRLKRKLR-NH2 [SRP-13]"
system_name = "Trichophyton rubrum NBRC9185"
test_result = "128/64"


* * *

# System: Streptococcus pyogenes JCM5674
No end group written: not given here.
MEASUREMENT TYPE: MIC Streptococcus pyogenes (µg/mL)

[[record]]
substance = "IFLHRLKRMRKRLKRKLRLW-OH [SRP-7]"
test_result = 32

[[record]]
substance = "RLKRMRKRLKRKLRLW-NH2 [SRP-17]"
test_result = 128

[[record]]
substance = "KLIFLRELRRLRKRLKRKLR-NH2 [SRP-16]"
test_result = 32

[[record]]
substance = "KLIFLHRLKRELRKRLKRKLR-NH2 [SRP-13]"
test_result = 32

[[record]]
substance = "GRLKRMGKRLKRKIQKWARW-NH2 [SRP-14]"
test_result = 16

[[record]]
substance = "GRLKRMGERLKRKIQKLIRL-NH2 [SRP-21]"
test_result = 8

[[record]]
substance = "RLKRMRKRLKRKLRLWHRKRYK-NH2 [SRP-8]"
test_result = 64

[[record]]
substance = "KNLRRIIRKIIHIIKKYG-NH2 [Ovispirin-1, reference compound]"
test_result = 32

[[record]]
substance = "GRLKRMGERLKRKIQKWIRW-NH2 [SRP-15]"
test_result = 16

[[record]]
substance = "Ac-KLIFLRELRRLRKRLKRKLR-NH2 [SRP-20]"
test_result = 32

[[record]]
substance = "Ac-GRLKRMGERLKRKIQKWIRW-NH2 [SRP-19]"
test_result = 16

[[record]]
substance = "Ac-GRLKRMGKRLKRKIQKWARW-NH2 [SRP-18]"
test_result = 16


* * *

# Tested on: Escherichia coli ATCC 25922
# METHOD: ATP Assay (viability at 3 hours), Table 6
# Assay type: cell-based
# CONDITION NOTES: 3 h, 5 μg/mL
No end group written: not given here.
Threshold-based label: Escherichia coli ATP (viability, relative value to negative control) under 6 gives criterion met, Escherichia coli ATP (viability, relative value to negative control) not under 6 gives criterion not met.

[[record]]
substance = "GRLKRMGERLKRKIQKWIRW-NH2 [SRP-15]"
label_value = "criterion met"

[[record]]
substance = "MLKLIFLHRLKRMRKRLKRK-NH2 [SRP-10]"
label_value = "criterion met"

[[record]]
substance = "RLKRLGERLKRKIQKL-NH2 [SRP-36]"
label_value = "criterion not met"

[[record]]
substance = "LIFLHRLKRMRKRLKRKLRL-NH2 [SRP-12]"
label_value = "criterion not met"

[[record]]
substance = "Ac-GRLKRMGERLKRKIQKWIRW-NH2 [SRP-19]"
label_value = "criterion met"

[[record]]
substance = "Ac-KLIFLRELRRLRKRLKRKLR-NH2 [SRP-20]"
label_value = "criterion not met"

[[record]]
substance = "GRLKRIGERLKRKIQKWIRW-NH2 [SRP-24]"
label_value = "criterion not met"

[[record]]
substance = "LKRLGERLKRKIQKLIRL-NH2 [SRP-29]"
label_value = "criterion not met"

[[record]]
substance = "Ac-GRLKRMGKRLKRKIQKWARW-NH2 [SRP-18]"
label_value = "criterion met"

[[record]]
substance = "GERLKRKIQKWIRW-NH2 [SRP-26]"
label_value = "criterion not met"

[[record]]
substance = "RLKRLGERLKRKIQKLIR-NH2 [SRP-34]"
label_value = "criterion met"

[[record]]
substance = "Ac-RLKRLGERLKRKIQKLIRL-NH2 [SRP-33]"
label_value = "criterion met"

[[record]]
substance = "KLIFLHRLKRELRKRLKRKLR-NH2 [SRP-13]"
label_value = "criterion met"

